target-under-test: hERG1 channel (Homo sapiens)
Construct: expressed in transfected cells
Sequence (Q12809 whole entry): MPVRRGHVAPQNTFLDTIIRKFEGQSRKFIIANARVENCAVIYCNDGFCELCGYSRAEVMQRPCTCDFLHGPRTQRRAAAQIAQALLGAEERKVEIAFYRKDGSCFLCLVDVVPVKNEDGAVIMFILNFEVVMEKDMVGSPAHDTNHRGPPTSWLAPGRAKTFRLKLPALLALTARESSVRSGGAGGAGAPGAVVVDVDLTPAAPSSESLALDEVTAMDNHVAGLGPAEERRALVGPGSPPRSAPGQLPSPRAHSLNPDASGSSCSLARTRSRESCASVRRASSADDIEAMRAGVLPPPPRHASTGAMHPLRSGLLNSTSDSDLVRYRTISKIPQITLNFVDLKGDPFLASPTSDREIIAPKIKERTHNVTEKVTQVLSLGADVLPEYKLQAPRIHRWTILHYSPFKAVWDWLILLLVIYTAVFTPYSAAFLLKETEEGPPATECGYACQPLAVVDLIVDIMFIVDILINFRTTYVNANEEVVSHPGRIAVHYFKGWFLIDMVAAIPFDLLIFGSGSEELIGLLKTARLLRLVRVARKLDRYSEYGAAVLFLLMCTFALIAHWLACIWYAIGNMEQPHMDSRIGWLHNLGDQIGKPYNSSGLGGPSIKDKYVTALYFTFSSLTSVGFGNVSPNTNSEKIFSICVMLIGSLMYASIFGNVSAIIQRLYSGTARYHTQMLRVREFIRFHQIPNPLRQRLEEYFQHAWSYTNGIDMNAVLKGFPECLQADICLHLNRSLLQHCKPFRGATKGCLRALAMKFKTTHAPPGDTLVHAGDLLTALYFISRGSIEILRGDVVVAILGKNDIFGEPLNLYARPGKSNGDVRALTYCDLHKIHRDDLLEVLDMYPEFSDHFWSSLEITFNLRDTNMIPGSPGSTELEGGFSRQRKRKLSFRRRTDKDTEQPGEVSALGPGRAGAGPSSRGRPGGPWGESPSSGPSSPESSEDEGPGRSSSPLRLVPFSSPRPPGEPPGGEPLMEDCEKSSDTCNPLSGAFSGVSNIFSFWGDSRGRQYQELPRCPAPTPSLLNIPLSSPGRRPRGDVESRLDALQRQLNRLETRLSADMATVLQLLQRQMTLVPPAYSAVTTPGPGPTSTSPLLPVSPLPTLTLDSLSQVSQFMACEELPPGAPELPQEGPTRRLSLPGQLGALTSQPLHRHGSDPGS
assay-protocol: Patch-clamp electrophysiology, block of hERG1 tail currents (dose-response) in CHO cells stably expressing hERG1
Format: cell-based
run-conditions: CHO cells stably expressing hERG1; tail currents at −120 mV after preconditioning at 60 mV for 500 ms every 5 s; 1 nM to 1 µM; logistic fit; mean ± S.E., n = 3-6 cells per concentration; read-out: IC50, inhibition of hERG1 currents
Procedure: CHO cells stably expressing hERG1 potassium channels were used for the electrophysiological experiments (hERG1 accession number: NP_000229). […] During the depolarizing steps, hERG1 currents are usually small (Figure S1). […] For the dose response curve (Figure 3), tail currents of hERG1 were recorded at −120 mV for 500 ms, after a preconditioning pulse at 60 mV for 500 ms every 5 s. […]
pIC50: −log10 of the molar value. Positions of bridges follow the written chain, without caps; N, C: chain ends. No end group written: not given here.
assay-metric: pIC50

DRDSCVDKSRCAKYGYFQECTDCCKKYGHNGGTCMFFKCKCA (disulfide 5-23, 11-34, 20-39, 24-41) [CmERG1]
8.47
